FYI, the data here is from patent US11827664B2.

test: Stability in acidic medium, monitored by HPLC; assay type: physicochemical; conditions: 0.1 N aq. HCl/MeOH (2/1 v/v), room temperature, 12 h
MEASUREMENT LABEL: percentage of test compound remaining (HPLC peak area %)

CO[C@@H]1[C@@H](O)[C@@H](O)[C@H](Oc2ccc(C(F)(F)CNC(C)=O)c(-c3cccc(F)c3)c2)OC1(C)C
93.7
CC(=O)NCCc1ccc(O[C@@H]2O[C@@H](CO)[C@H](O)[C@@H](O)[C@H]2O)cc1-c1cccc(F)c1
97.5
CNC(=O)CCc1ccc(O[C@@H]2OC(C)(C)[C@H](OC)[C@@H](O)[C@H]2O)cc1-c1cccc(F)c1
90.3
CNC(=O)CCc1ccc(O[C@@H]2O[C@@H](C)[C@H](OC)[C@@H](O)[C@H]2O)cc1-c1cccc(F)c1
100.6

* * *

assay: Stability in acidic medium, monitored by HPLC; assay type: physicochemical; settings: 0.1 N aq. HCl/MeOH (2/1 v/v), room temperature, 20 h
MEASUREMENT LABEL: percentage of test compound remaining (HPLC peak area %)

CO[C@@H]1[C@@H](O)[C@@H](O)[C@H](Oc2ccc(CCNC(C)=O)c(-c3cccc(F)c3)c2)OC1(C)C [T0, reference compound]
83.9
CC(=O)NCCc1ccc(O[C@@H]2O[C@@H](C)[C@H](O)[C@@H](O)[C@H]2O)cc1-c1cccc(F)c1
100.3
CC(=O)NCCc1ccc(O[C@@H]2O[C@@H](CO)[C@H](O)[C@@H](O)[C@H]2O)cc1-c1cccc(F)c1
98.0
CO[C@@H]1[C@@H](O)[C@@H](O)[C@@H](Oc2ccc(CCNC(C)=O)c(-c3cccc(F)c3)c2)OC1(C)C
86.8
CNC(=O)CCc1ccc(O[C@@H]2O[C@@H](C)[C@H](OC)[C@@H](O)[C@H]2O)cc1-c1cccc(F)c1
101.4
CO[C@@H]1[C@@H](O)[C@@H](O)[C@H](Oc2ccc(C(F)(F)CNC(C)=O)c(-c3cccc(F)c3)c2)O[C@H]1C
99.7
CO[C@@H]1[C@@H](O)[C@@H](O)[C@H](Oc2ccc(C(F)(F)CNC(C)=O)c(-c3cccc(F)c3)c2)OC1(C)C
90.6

* * *

Assay: Stability in acidic medium, monitored by HPLC
Type: physicochemical
Details: 0.1 N aq. HCl/MeOH (2/1 v/v), room temperature, 16 h
Experimental: A sample of a test compound (1.2 mg) was dissolved in 0.1 N aq. HCl/MeOH (2/1 v/v, 4 mL) at room temperature. The degradation of the test compound was monitored by HPLC. The percentage of the test compound remaining was calculated using the peak area % in HPLC.
MEASUREMENT LABEL: percentage of test compound remaining (HPLC peak area %)

CC(=O)NCCc1ccc(O[C@@H]2O[C@@H](C)[C@@H](O)[C@@H](O)[C@@H]2O)cc1-c1cccc(F)c1
97.9
CC(=O)NCCc1ccc(O[C@@H]2O[C@@H](CO)[C@H](O)[C@@H](O)[C@H]2O)cc1-c1cccc(F)c1
97.2
CO[C@@H]1[C@@H](O)[C@@H](O)[C@H](Oc2ccc(C(F)(F)CNC(C)=O)c(-c3cccc(F)c3)c2)O[C@H]1C
99.5
CC(=O)NCCc1ccc(O[C@@H]2OC(C)(C)[C@H](OC(F)F)[C@@H](O)[C@H]2O)cc1-c1cccc(F)c1
96.6
CC(=O)NCCc1ccc(O[C@@H]2OC(C)(C)[C@H](OCc3ccccc3)[C@@H](O)[C@H]2O)cc1-c1cccc(F)c1
71.5
CC(=O)NCCc1ccc(O[C@@H]2O[C@@H](C)[C@H](O)[C@@H](O)[C@H]2O)cc1-c1cccc(F)c1
100.4
CO[C@@H]1[C@@H](O)[C@@H](O)[C@@H](Oc2ccc(CCNC(C)=O)c(-c3cccc(F)c3)c2)OC1(C)C
89.2
